assay: toxic and cytostatic effects on HELF cells in the anti-HCMV screening test; format: cell-based; details: human, concentration at which half the cells are destroyed
reported_property: CC50 (µM)
Return type: number; implicit unit µM.

# input Requested field: CC50. Item: CC(=O)n1ccc2cc(S(=O)(=O)Nc3ccc(C(=O)NC(C)(C)C)cc3)ccc21 [Example 2]
# output 86

# input Check CCn1ccc2cc(S(=O)(=O)Nc3cccc(NC(=O)C(C)(C)CF)c3)ccc21 [Example 1] too.
# output 15.6

----------
Please go through the items and note down their pEC50.
tested on: human cytomegalovirus (HCMV); test: anti-HCMV screening test (cytopathogenic effect) in HELF cell cultures; format: cell-based; conditions: Human betaherpesvirus 5; HCMV-infected HELF cells, 96-well plates; concentration giving 50% inhibition of virus activity (CPE, Neutral Red)
Please keep in mind that pEC50 is minus log10 of the molar concentration; only the number is needed.

# input Requested field: pEC50. Item: CCn1ccc2cc(S(=O)(=O)Nc3cccc(NC(=O)C(C)(C)CF)c3)ccc21 [Example 1]
# output 7.26

# input Check CC(=O)n1ccc2cc(S(=O)(=O)Nc3ccc(C(=O)NC(C)(C)C)cc3)ccc21 [Example 2] too.
# output 6.41
